- Tested on: ABUTH
- Protocol notes: Pre-emergence herbicidal action against ABUTH
- Assay type: in vivo, Abutilon theophrasti
- Test conditions: dosage 20 g/ha, scored visually after 3 weeks vs untreated controls, 100% = plants have died, 0% = like control plants
Observation type: Pre-emergence action against ABUTH (herbicidal activity in percent) (%)
Report the value in % with no unit label.

Recorded result, "CCn1nnnc1NC(=O)c1ccc(C(F)F)c(C(=O)NCCOC)c1C" , Pre-emergence action against ABUTH (herbicidal activity in percent): 80

---

Parameter: pest or weed control at 20 g/ha. Scope: all listed entries.
- Tested on: POLCO
- Protocol notes: Post-emergence herbicidal action against POLCO
- Format: in vivo, Polygonum convolvulus
- Test conditions: Fallopia convolvulus, 504 h, dosage 20 g/ha
Report the value in % with no unit label.

Query smiles	pest or weed control at 20 g/ha, %
COc1c(C(=O)Nc2nnnn2C)ccc(C(F)F)c1C(=O)NC1CC1	80
Cc1c(C(=O)Nc2nnnn2C)ccc(C(F)(F)F)c1C(=O)NC1CC1	90
CCn1nnnc1NC(=O)c1ccc(Cl)c(C(=O)NC2CC2)c1Cl	90
CCn1nnnc1NC(=O)c1ccc(C(F)F)c(C(=O)NC2CC2)c1Cl	80
CCc1c(C(=O)Nc2nnnn2C)ccc(C(F)(F)F)c1C(=O)NC	80
CCNC(=O)c1c(C(F)(F)F)ccc(C(=O)Nc2nnnn2C)c1C	90

Note: attention shifts to another entry.
Recorded result, "CNC(=O)c1c(C(F)(F)F)ccc(C(=O)Nc2nnnn2C)c1Br" , pest or weed control at 20 g/ha: 100

These data points were gathered from patent US12655116B2.
